Target: A*3301 (Homo sapiens, UniProt P04439, A270S/D185E/E176V/E277Q/E87N/F33T/G231S/H175R/I121M/I218V/I322F/K168Q/K210R/L300P/L318F/M331R/P217A/Q86R/Q94H/R138Q/T323A/T345S/T97I/V358M/Y195H)
Test: biochemical
Type: binding
No end group written: not given here.
Provide the recorded pIC50 for the entries that follow.
Value format note: pIC50 is -log10 of concentration (mol/L); just state the number.

Problem: Please look up its pIC50: ITVSAELPR [Peptide 1556.18]
Result: 5.06

Problem: Endpoint output: pIC50 of TTLEKLTNK [Peptide 78.0283] . Value?
Result: 6.33

Problem: Query (sequence): TVSAELPR [Peptide 1556.22] ; field requested: pIC50
Result: 5.00

Problem: Reported pIC50 for QQMNMCQWIK [Peptide 88.0186] : what is it?
Result: 4.88

Problem: Request the reported pIC50 associated with KQRFHNIRGR [Peptide 78.0083]
Result: 5.35

Problem: May I ask what pIC50 has been recorded for EVLMWKFDSR [Peptide 9017.0192] ?
Result: 7.21

Problem: Which value of pIC50 has been reported for KISEYRHYCY [Peptide 78.0082] in the records?
Result: 5.63

Problem: Bench note: what pIC50 did VTYNSEVQR [Peptide 1589.29] show?
Result: 6.82

Problem: Consider the sequence CTYSPALNR [Peptide 1556.42] and give its measured pIC50.
Result: 8.07

Problem: Given the entry TVNEYNTHK [Peptide 1589.36] , report its measured pIC50.
Result: 5.56

Problem: Dear colleague, I am looking for the recorded pIC50 of the following sequence: WTIAYIEYRK [Peptide 9017.0244]
Result: 6.31

Problem: Endpoint output: pIC50 of CFYSPALNK [Peptide 1556.43] . Value?
Result: 6.91

Problem: Endpoint output: pIC50 of KFYSKISEYR [Peptide 78.0081] . Value?
Result: 7.10

Problem: I am curious: what pIC50 value has been reported for VQFKSECEK [Peptide 88.0419] ?
Result: 5.32

Problem: // returns reported pIC50 for input SFTDLVRNFK [Peptide 88.0143]
Result: 7.25

Problem: Need pIC50, item MTLESILRR [Peptide 9012.0215]
Result: 7.03

Problem: I would be grateful if you could share the reported pIC50 for KVSEFRWYRY [Peptide 78.0053] .
Result: 5.15

Problem: Return reported pIC50; argument: SVRKLTEDR [Peptide 9017.0106]
Result: 6.19

Problem: Query (sequence): SVCMGGMNR [Peptide 1556.60] ; field requested: pIC50
Result: 7.11

Problem: Record request: pIC50 value, item RVHSSHLKSKK [Peptide 1556.75]
Result: 4.92

Problem: Give the measured pIC50 of KTLLQQYCLY [Peptide 88.0130] .
Result: 4.84

Problem: Which pIC50 value is on record for TLTYISTSQR [Peptide 88.0211] ?
Result: 6.00

Problem: Which pIC50 value is on record for VSIEWRQRR [Peptide 9017.0089] ?
Result: 8.15

Problem: Requested read-out: pIC50. Entry: NTMHYTNWK [Peptide 1589.16]
Result: 6.40

Problem: Reported pIC50, sequence VSYWGVYYIK [Peptide 1589.25] : ____
Result: 4.94

Problem: Requested field: pIC50. Item: VTVKVGGQLR [Peptide 1516.06]
Result: 4.90
